B1: F-BAR and double SH3 domains protein 1, residues 467 to 528; numbered along this chain, Q86WN1 (parent)
chain: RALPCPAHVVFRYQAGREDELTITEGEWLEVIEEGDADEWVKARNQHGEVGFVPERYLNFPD

- Variants of: B1
- experiment-notes: abundance fitness (aPCA) (normalised: wild type 0, dead -1); higher = more abundant; growth selection in yeast, the domain comes from the species named
- study-conditions: Homo sapiens
measured-parameter: abundance fitness
No unit in the answer, only the number.

Would you mind telling me what abundance fitness value was observed for E25M ?
-0.297
